Assay: in vivo
Conditions: rat, iv, 1 mg/kg
MEASURED PROPERTY: Cmax (nM)
The reply should be a number in nM, with the unit left off.

Request: Provide only the value of recorded Cmax for CN(C)c1ccc(O)c2c1C[C@H]1C[C@H]3[C@H](N(C)C)C(O)=C(C(N)=O)C(=O)[C@@]3(O)C(O)=C1C2=O [Minocycline, minocycline, reference compound]
Result: 930

* * *

Target: recombinant human matrix metalloproteinase-9 (MMP-9) (Homo sapiens, UniProt P14780)
Construct: an aliquot of active recombinant human matrix metalloproteinase-9 (MMP-9)(CalBioChem) was added; purchased CalBioChem
Sequence (P14780 107-707 limits assumed): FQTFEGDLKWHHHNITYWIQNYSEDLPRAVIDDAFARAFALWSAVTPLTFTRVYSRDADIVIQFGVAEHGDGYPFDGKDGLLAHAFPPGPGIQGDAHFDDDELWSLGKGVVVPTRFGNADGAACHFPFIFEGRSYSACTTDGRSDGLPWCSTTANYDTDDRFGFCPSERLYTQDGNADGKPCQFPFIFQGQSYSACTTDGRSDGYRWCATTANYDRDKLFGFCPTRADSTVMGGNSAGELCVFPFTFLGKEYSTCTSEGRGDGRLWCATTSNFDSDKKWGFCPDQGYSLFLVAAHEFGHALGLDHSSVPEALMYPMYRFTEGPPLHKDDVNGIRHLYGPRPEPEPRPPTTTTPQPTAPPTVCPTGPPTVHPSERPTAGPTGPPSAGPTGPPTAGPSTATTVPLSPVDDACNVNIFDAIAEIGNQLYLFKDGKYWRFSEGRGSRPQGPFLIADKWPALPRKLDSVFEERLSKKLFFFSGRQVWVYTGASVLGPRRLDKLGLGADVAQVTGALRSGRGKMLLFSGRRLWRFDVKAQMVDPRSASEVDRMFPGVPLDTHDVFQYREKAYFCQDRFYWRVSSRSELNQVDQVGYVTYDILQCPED
Assay: MMP-9 enzyme activity assay (cell-free)
Type: biochemical
Settings: Table 4, unit inferred; read-out: MMP-9 activity (cell-free)
Description: Compound 1 was tested to determine specific anti-inflammatory characteristics. […] MMP-9 activity was determined by fluorescence after incubation of recombinant MMP-9 with fluorescein-conjugated DQ gelatin for 90 min. TNFα production was determined by incubation of 10 ng/ml LPS with RAW264.7 macrophage cells for 24 h, followed by quantitation of TNFα in culture supernatant by ELISA. […]
Could you please report measured pIC50 for the items listed next?
Please note pIC50 is a logarithmic value: minus log10 of concentration in mol/L. Answer with that number alone.

Request: Give me measured pIC50, please, for this compound: CN(C)c1ccc(O)c2c1C[C@H]1C[C@H]3[C@H](N(C)C)C(O)=C(C(N)=O)C(=O)[C@@]3(O)C(O)=C1C2=O [Minocycline, minocycline, reference compound]
Result: 4.36

Request: Check the records and state pIC50 for CCc1cc(N(C)C)c2c(c1O)C(=O)C1=C(O)[C@]3(O)C(=O)C(C(N)=O)=C(O)[C@@H](N(C)C)[C@@H]3C[C@@H]1C2 [Compound 1]
Result: 4.54

* * *

Assay: in vivo
Conditions: rat, po, 5 mg/kg
Kindly supply the reported Tmax values for the records listed here.
Report the figure in h without appending any unit label.

Request: Supply reported Tmax belonging to this compound: "CCc1cc(N(C)C)c2c(c1O)C(=O)C1=C(O)[C@]3(O)C(=O)C(C(N)=O)=C(O)[C@@H](N(C)C)[C@@H]3C[C@@H]1C2"
Result: 2

Request: Please look at this compound and report its Tmax: CN(C)c1ccc(O)c2c1C[C@H]1C[C@H]3[C@H](N(C)C)C(O)=C(C(N)=O)C(=O)[C@@]3(O)C(O)=C1C2=O [Minocycline, minocycline, reference compound]
Result: 1.7

* * *

Test: Bioavailability in the CNS of the mouse
Settings: brain, ip, 10 mg/kg
MEASURED PROPERTY: concentration at 2 hr (ng/g)
Answer format: numeric, ng/g implied, no suffix.

Request: Give the value of concentration at 2 hr reported for the following: CN(C)c1ccc(O)c2c1C[C@H]1C[C@H]3[C@H](N(C)C)C(O)=C(C(N)=O)C(=O)[C@@]3(O)C(O)=C1C2=O [Minocycline, minocycline, reference compound]
Result: 317

* * *

Assay: Bioavailability in the CNS of the mouse
Conditions: plasma, ip, 10 mg/kg
MEASURED PROPERTY: concentration at 1 hr (ng/mL)
Numbers only here, please. The scale is ng/mL.

Request: Find the measured concentration at 1 hr of CN(C)c1ccc(O)c2c1C[C@H]1C[C@H]3[C@H](N(C)C)C(O)=C(C(N)=O)C(=O)[C@@]3(O)C(O)=C1C2=O [Minocycline, minocycline, reference compound] and report it.
Result: 1500

* * *

Assay: Bioavailability in the CNS of the mouse
Conditions: brain/plasma, ip, 10 mg/kg
MEASURED PROPERTY: Kp at 0.5 hr

Request: Look up and state reported Kp at 0.5 hr for CN(C)c1ccc(O)c2c1C[C@H]1C[C@H]3[C@H](N(C)C)C(O)=C(C(N)=O)C(=O)[C@@]3(O)C(O)=C1C2=O [Minocycline, minocycline, reference compound]
Result: 0.095

* * *

Assay: Bioavailability in the CNS of the mouse
Settings: brain/plasma, ip, 10 mg/kg
MEASURED PROPERTY: Kp at 1 hr
Write the value as a bare number.

Request: Return Kp at 1 hr for the following molecule: CN(C)c1ccc(O)c2c1C[C@H]1C[C@H]3[C@H](N(C)C)C(O)=C(C(N)=O)C(=O)[C@@]3(O)C(O)=C1C2=O [Minocycline, minocycline, reference compound]
Result: 0.253

* * *

Test system: cerebellar granule neurons
Test: Glutamate-induced neurodegeneration in cerebellar granule neurons (MTT)
Format: cell-based, C57BL/6 mouse
Settings: Mus musculus, Neuron; Table 4, unit inferred; read-out: Neuroprotection (mouse CGN)
MEASURED PROPERTY: EC50 (µM)
Give just the number in µM; leave the unit off.

Request: Name the recorded EC50 of the compound listed here: CN(C)c1ccc(O)c2c1C[C@H]1C[C@H]3[C@H](N(C)C)C(O)=C(C(N)=O)C(=O)[C@@]3(O)C(O)=C1C2=O [Minocycline, minocycline, reference compound]
Result: 1.4

Request: Fill in reported EC50 for this entry: CCc1cc(N(C)C)c2c(c1O)C(=O)C1=C(O)[C@]3(O)C(=O)C(C(N)=O)=C(O)[C@@H](N(C)C)[C@@H]3C[C@@H]1C2 [Compound 1]
Result: 2.6

* * *

Assay: in vivo
Details: monkey, iv, 5 mg/kg
MEASURED PROPERTY: half-life (h)
Just the number in h, nothing appended.

Request: Tell me measured half-life for "CCc1cc(N(C)C)c2c(c1O)C(=O)C1=C(O)[C@]3(O)C(=O)C(C(N)=O)=C(O)[C@@H](N(C)C)[C@@H]3C[C@@H]1C2" please.
Result: 5.7

Request: Give half-life for CN(C)c1ccc(O)c2c1C[C@H]1C[C@H]3[C@H](N(C)C)C(O)=C(C(N)=O)C(=O)[C@@]3(O)C(O)=C1C2=O [Minocycline, minocycline, reference compound]
Result: 10.4

* * *

Experiment: in vivo
Settings: monkey, iv, 5 mg/kg
MEASURED PROPERTY: Cmax (µM)
Express the result in µM but write the number alone.

Request: Specify Cmax for "CCc1cc(N(C)C)c2c(c1O)C(=O)C1=C(O)[C@]3(O)C(=O)C(C(N)=O)=C(O)[C@@H](N(C)C)[C@@H]3C[C@@H]1C2" and stop.
Result: 28.5

Request: Give a short answer stating reported Cmax for CN(C)c1ccc(O)c2c1C[C@H]1C[C@H]3[C@H](N(C)C)C(O)=C(C(N)=O)C(=O)[C@@]3(O)C(O)=C1C2=O [Minocycline, minocycline, reference compound] .
Result: 29.9

* * *

Experiment: Bioavailability in the CNS of the mouse
Settings: brain, ip, 10 mg/kg
MEASURED PROPERTY: concentration at 4 hr (ng/g)
Answer format: numeric, ng/g implied, no suffix.

Request: Give concentration at 4 hr for CN(C)c1ccc(O)c2c1C[C@H]1C[C@H]3[C@H](N(C)C)C(O)=C(C(N)=O)C(=O)[C@@]3(O)C(O)=C1C2=O [Minocycline, minocycline, reference compound]
Result: 327

* * *

Experiment: in vivo
Details: mouse, in vivo, ip, 10 mg/kg
Description: Compounds were administered via the indicated routes and blood samples were removed at various times up to 24 hr. Concentration of compound was determined by LC/MS.
MEASURED PROPERTY: Kp at 0.5 hr
Field format: numeric only.

Request: Answer with the recorded Kp at 0.5 hr for the compound listed here: "CCc1cc(N(C)C)c2c(c1O)C(=O)C1=C(O)[C@]3(O)C(=O)C(C(N)=O)=C(O)[C@@H](N(C)C)[C@@H]3C[C@@H]1C2"
Result: 0.179

* * *

Assay: Alkylperoxy radical scavenging assay (AIPH, AE-Trolox oxidation)
Settings: 5 mM AIPH, 37° C., 8 minutes; read-out: IC50, inhibition of AE-Trolox oxidation (alkylperoxy radical scavenging)
MEASURED PROPERTY: IC50

Request: // fetch IC50 given entry "CN(C)[C@@H]1C(O)=C(C(N)=O)C(=O)[C@@]2(O)C(O)=C3C(=O)c4c(O)cccc4C[C@H]3C[C@@H]12"
Result: 369 µM

Request: Give a short answer stating reported IC50 for Cc1c(C)c2c(c(C)c1O)CCC(C)(C(=O)O)O2 (stereo not drawn) .
Result: 9 µM

Request: Return the recorded IC50 value; entry: "CCc1cc(N(C)C)c2c(c1O)C(=O)C1=C(O)[C@]3(O)C(=O)C(C(N)=O)=C(O)[C@@H](N(C)C)[C@@H]3C[C@@H]1C2"
Result: 12.6 µM

* * *

Assay: in vivo
Settings: rat, iv, 5 mg/kg
MEASURED PROPERTY: Cmax
Your reply should be a number followed by the unit it is expressed in.

Request: Provide Cmax value for the following molecule: CCc1cc(N(C)C)c2c(c1O)C(=O)C1=C(O)[C@]3(O)C(=O)C(C(N)=O)=C(O)[C@@H](N(C)C)[C@@H]3C[C@@H]1C2 [Compound 1]
Result: 27.9 µM

* * *

Assay: Bioavailability in the CNS of the mouse
Conditions: plasma, ip, 10 mg/kg
MEASURED PROPERTY: concentration at 4 hr (ng/mL)
A number alone suffices; assume ng/mL.

Request: Quote concentration at 4 hr reported for CN(C)c1ccc(O)c2c1C[C@H]1C[C@H]3[C@H](N(C)C)C(O)=C(C(N)=O)C(=O)[C@@]3(O)C(O)=C1C2=O [Minocycline, minocycline, reference compound] please.
Result: 475
